From: patent US20220380463A1

Tested System: T1, human CD3 on CD3+ Jurkat cells (human, UniProt P07766 23-207)
T1 construct: whole, on cells; Native CD3 complex on cells; the other CD3 chains are not specified for this assay; also called Human CD3+ Jurkat
T1 sequence (P07766 23-207): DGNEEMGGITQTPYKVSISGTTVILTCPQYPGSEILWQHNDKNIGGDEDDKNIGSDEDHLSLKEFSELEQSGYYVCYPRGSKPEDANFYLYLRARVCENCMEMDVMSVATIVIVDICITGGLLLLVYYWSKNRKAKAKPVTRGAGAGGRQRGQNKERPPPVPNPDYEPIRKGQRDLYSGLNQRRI
Experiment Notes: flow cytometry on CD3+ Jurkat cells, ratio of MFI at pH 6.0 to pH 7.4
What MFI pH 6.0/MFI pH 7.4 was measured for each of the following?
One number for each entry.

# count of solved cases: 4
INSERT INTO measurements (binder, experimental_result) VALUES
  ('SAD10318_P04_D10 (ADI-48613) (antibody, V domains shown, IgG; also called Ab211) VH: QVQLVQSGAEVKKPGASVKVSCKASGFNIKDYYMHWVRQAPGQRLEWMGWIDLENANTIYDAKFQGRVTITRDTSASTAYMELSSLRSEDTAVYYCARDAYGHYHYDVWGQGTLVTVSS VL: DIVMTQSPDSLAVSLGERATINCKSSQSLLHARTGKNHLAWYQQKPGQPPKLLIYWASTRESGVPDRFSGSGSGTDFTLTISSLQAEDVAVYYCKQSYSRRTFGGGTKVEIK', 0.8),
  ('SAD10319_P02_D06 (ADI-48631) (antibody, V domains shown, IgG; also called Ab11) VH: QVQLVQSGAEVKKPGASVKVSCKASGYTFTDYAMHWVRQAPGQRLEWMGWINAGTGATIYSQKFQGRVTITRDTSASTAYMELSSLRSEDTAVYYCARDAYHHYFYDVWGQGTLVTVSS VL: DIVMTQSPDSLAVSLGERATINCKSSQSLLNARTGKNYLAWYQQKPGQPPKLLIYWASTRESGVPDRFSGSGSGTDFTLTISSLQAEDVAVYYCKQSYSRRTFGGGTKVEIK', 13.4),
  ('SAD10319_P03_E07 (ADI-48635) (antibody, V domains shown, IgG; also called Ab17) VH: QVQLVQSGAEVKKPGASVKVSCKASGYTFESYDMHWVRQAPGQRLEWMGWIDAGTGATTYSQKFQGRVTITRDTSASTAYMELSSLRSEDTAVYYCARDAYHHYFYDVWGQGTLVTVSS VL: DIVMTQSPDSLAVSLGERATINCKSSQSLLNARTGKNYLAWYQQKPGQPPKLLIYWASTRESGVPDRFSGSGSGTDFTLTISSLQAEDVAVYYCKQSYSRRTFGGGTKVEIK', 11.6),
  ('SAD10318_P03_F08 (ADI-48606) (antibody, V domains shown, IgG; also called Ab200) VH: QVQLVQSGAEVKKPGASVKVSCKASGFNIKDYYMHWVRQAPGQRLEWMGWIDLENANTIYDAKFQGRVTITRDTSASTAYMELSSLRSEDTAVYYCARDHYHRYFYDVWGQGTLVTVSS VL: DIVMTQSPDSLAVSLGERATINCKSSQSLLNAHTGKNHLAWYQQKPGQPPKLLIYWASTRESGVPDRFSGSGSGTDFTLTISSLQAEDVAVYYCKQSYSRRHFGGGTKVEIK', 1.2);

Here is the next item to consider.
# get_value(readout='MFI pH 6.0/MFI pH 7.4', item= SAD10318_P03_H08 (ADI-48607) (antibody, V domains shown, IgG; also called Ab202) VH: QVQLVQSGAEVKKPGASVKVSCKASGFNIKDYYMHWVRQAPGQRLEWMGWIDLENANTIYDAKFQGRVTITRDTSASTAYMELSSLRSEDTAVYYCARDAYHHYFYDVWGQGTLVTVSS VL: DIVMTQSPDSLAVSLGERATINCKSSQSLLNARTGHNHLAWYQQKPGQPPKLLIYWASTRESGVPDRFSGSGSGTDFTLTISSLQAEDVAVYYCHQSHSRRTFGGGTKVEIK ) 1.7
